// provenance: patent US20210017293

// values below are reported pEC50
- TARGET_DESC: T1, human TNFR1 (human, UniProt P19438)
- T1 chain: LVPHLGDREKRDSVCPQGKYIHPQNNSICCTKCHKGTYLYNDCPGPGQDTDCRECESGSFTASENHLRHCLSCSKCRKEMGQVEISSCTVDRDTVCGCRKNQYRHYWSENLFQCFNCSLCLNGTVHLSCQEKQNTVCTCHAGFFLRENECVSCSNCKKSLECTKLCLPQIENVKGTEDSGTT
- RUN_DESCRIPTION: ELISA
// field semantics: pEC50 = negative decimal log of concentration (mol/L)

// solved cases for pEC50 follow
binder="DOM1H-131-206 C-terminal ASTKG (antibody, V domains shown) VH: EVQLLESGGGLVQPGGSLRLSCAASGFTFAHETMVWVRQAPGKGLEWVSHIPPDGQDPFYADSVKGRFTISRDNSKNTLYLQMNSLRAEDTAVYHCALLPKRGPWFDYWGQGTLVTVSS" test_readout=pEC50 assay_value=8.72
binder="DOM1H-131-206 P14A + C-terminal ASTKG (antibody, V domains shown) VH: EVQLLESGGGLVQAGGSLRLSCAASGFTFAHETMVWVRQAPGKGLEWVSHIPPDGQDPFYADSVKGRFTISRDNSKNTLYLQMNSLRAEDTAVYHCALLPKRGPWFDYWGQGTLVTVSS" test_readout=pEC50 assay_value=8.33

QUERY: Which pEC50 reading was recorded for the binder DOM1H-131-206 P14A + C-terminal A (antibody, V domains shown) VH: EVQLLESGGGLVQAGGSLRLSCAASGFTFAHETMVWVRQAPGKGLEWVSHIPPDGQDPFYADSVKGRFTISRDNSKNTLYLQMNSLRAEDTAVYHCALLPKRGPWFDYWGQGTLVTVSS ?
RESULT: 8.65

QUERY: Query DOM1H-131-206 C-terminal A (antibody, V domains shown) VH: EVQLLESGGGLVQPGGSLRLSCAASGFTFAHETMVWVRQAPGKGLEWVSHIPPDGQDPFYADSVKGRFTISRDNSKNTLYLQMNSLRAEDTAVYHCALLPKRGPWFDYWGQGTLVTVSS next
RESULT: 8.57

QUERY: Query DOM1H-131-206 (antibody, V domains shown) VH: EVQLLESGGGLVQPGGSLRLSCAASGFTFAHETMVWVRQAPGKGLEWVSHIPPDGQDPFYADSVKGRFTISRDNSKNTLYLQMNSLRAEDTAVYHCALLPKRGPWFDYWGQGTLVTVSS next
RESULT: 8.71
